Data origin: the Human Domainome abundance scans (Beltran et al. 2025)

B1: Gamma-crystallin C, residues 91 to 170; numbered along this chain, P07315 (parent)
chain: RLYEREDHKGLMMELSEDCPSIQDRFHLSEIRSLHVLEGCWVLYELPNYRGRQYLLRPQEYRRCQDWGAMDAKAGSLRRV

- Variants of: B1
- ASSAY_PROCEDURE: abundance fitness (aPCA) (normalised: wild type 0, dead -1); higher = more abundant; growth selection in yeast, the domain comes from the species named
- ASSAY_CONDITIONS: Homo sapiens
PROPERTY_MEASURED: abundance fitness
Give bare numbers.

MUTATION_DESCRIPTOR: Q65V
PROPERTY_MEASURED: abundance fitness
VALUE_OBSERVED: 0.071

MUTATION_DESCRIPTOR: R32C
PROPERTY_MEASURED: abundance fitness
VALUE_OBSERVED: -0.178

For the 7 variants below, give their abundance fitness values.
1. M12F
2. E60K
3. L11A
4. L43S
5. P58R
6. G39Q
7. G39D

1: -0.342; 2: -0.197; 3: -0.13; 4: -0.865; 5: -0.453; 6: -0.853; 7: -0.298
